The molecules listed here are annotated with their metabolic activity, OD at 492 nm divided by OD of control (control = 1).
Tested on: Capnocytophaga sputigena
Experiment: Metabolic activity, Biolog phenotype microarray
Type: cell-based
Conditions: C sputigena; 48 hrs
property-name: metabolic activity, OD at 492 nm divided by OD of control (control = 1)

molecule=C[C@H](O)C(=O)O reported_result=1.1474
molecule=N[C@@H](CC(=O)O)C(=O)O reported_result=0.7655
molecule=O=C(O)[C@H](O)[C@@H](O)[C@H](O)[C@H](O)CO[C@H]1O[C@H](CO)[C@H](O)[C@H](O)[C@H]1O reported_result=0.9143
molecule="COC(=O)CCC(=O)O [Mono methyl succinate, mono methyl succinate]" reported_result=0.9842
molecule=O=C(O)C[C@H](O)C(=O)O reported_result=0.8870
molecule=O=C(O)CCC(=O)O reported_result=1.0105
molecule=O=C(O)CC(O)(CC(=O)O)C(=O)O reported_result=0.8818

* * *

Tested on: Veillonella parvula
Assay: Metabolic activity, Biolog phenotype microarray
Type: cell-based
Settings: V parvula; 48 hrs
The compounds listed here are annotated with their metabolic activity, OD at 492 nm divided by OD of control (control = 1).
property-name: metabolic activity, OD at 492 nm divided by OD of control (control = 1)

compound="O=C(O)CC(O)(CC(=O)O)C(=O)O [Citric acid, citric acid]" experimental_target="Veillonella parvula" reported_result=2.0488
compound="C[C@H](O)C(=O)O [L-lactic acid]" experimental_target="Veillonella parvula" reported_result=3.0003
compound="O=C(O)CCC(=O)O [Succinic acid, succinic acid]" experimental_target="Veillonella parvula" reported_result=2.2852
compound="COC(=O)CCC(=O)O [Mono methyl succinate, mono methyl succinate]" experimental_target="Veillonella parvula" reported_result=2.0023
compound="O=C(O)C[C@H](O)C(=O)O [L-malic acid]" experimental_target="Veillonella parvula" reported_result=1.5012
compound="N[C@@H](CC(=O)O)C(=O)O [L-aspartic acid]" experimental_target="Veillonella parvula" reported_result=2.2760
compound="O=C(O)[C@H](O)[C@@H](O)[C@H](O)[C@H](O)CO[C@H]1O[C@H](CO)[C@H](O)[C@H](O)[C@H]1O [Melibionic acid, melibionic acid]" experimental_target="Veillonella parvula" reported_result=0.6981

* * *

The compounds listed here are annotated with their metabolic activity, OD at 492 nm divided by OD of control (control = 1).
System: Streptococcus mitis
Assay: Metabolic activity, Biolog phenotype microarray
Assay type: cell-based
Conditions: S mitis; 24 hrs
property-name: metabolic activity, OD at 492 nm divided by OD of control (control = 1)

compound="COC(=O)CCC(=O)O [Mono methyl succinate, mono methyl succinate]" experimental_target="Streptococcus mitis" reported_result=1.0231
compound="O=C(O)[C@H](O)[C@@H](O)[C@H](O)[C@H](O)CO[C@H]1O[C@H](CO)[C@H](O)[C@H](O)[C@H]1O [Melibionic acid, melibionic acid]" experimental_target="Streptococcus mitis" reported_result=1.0443
compound="O=C(O)CCC(=O)O [Succinic acid, succinic acid]" experimental_target="Streptococcus mitis" reported_result=0.9268
compound="O=C(O)CC(O)(CC(=O)O)C(=O)O [Citric acid, citric acid]" experimental_target="Streptococcus mitis" reported_result=1.0814

* * *

The compounds listed here are annotated with their metabolic activity, OD at 492 nm divided by OD of control (control = 1).
Test system: Veillonella parvula
Assay: Metabolic activity, Biolog phenotype microarray
Format: cell-based
Conditions: V parvula; 24 hrs
property-name: metabolic activity, OD at 492 nm divided by OD of control (control = 1)

compound=O=C(O)C[C@H](O)C(=O)O reported_result=2.0256
compound=O=C(O)CCC(=O)O reported_result=2.8247
compound=O=C(O)[C@H](O)[C@@H](O)[C@H](O)[C@H](O)CO[C@H]1O[C@H](CO)[C@H](O)[C@H](O)[C@H]1O reported_result=0.8685
compound=N[C@@H](CC(=O)O)C(=O)O reported_result=1.8448
compound=O=C(O)CC(O)(CC(=O)O)C(=O)O reported_result=1.2832
compound="COC(=O)CCC(=O)O [Mono methyl succinate, mono methyl succinate]" reported_result=2.0008
compound=C[C@H](O)C(=O)O reported_result=3.4930

* * *

Tested on: Streptococcus sanguinis
Assay: Metabolic activity, Biolog phenotype microarray
Type: cell-based
Settings: S sanguinis; 48 hrs
Experimental: The extent of metabolic activity of the tested bacteria in the presence of the above-mentioned acids after 24 hours and 48 hours was investigated through a high throughput phenotype microarray system (PM) for microbial cells (Biolog Inc.). […] All plates were incubated in an anaerobic atmosphere at 37° C. Color changes were measured spectrophotometrically at 492 nm (Thermo Scientific Multiskan Ascent) at 24 hrs and 48 hrs using the same plate at both time points. […]
property-name: metabolic activity, OD at 492 nm divided by OD of control (control = 1)

smiles_entry=O=C(O)CCC(=O)O reported_result=0.8763
smiles_entry=N[C@@H](CC(=O)O)C(=O)O reported_result=0.9195
smiles_entry=O=C(O)C[C@H](O)C(=O)O reported_result=0.9018
smiles_entry=C[C@H](O)C(=O)O reported_result=0.8849
